TARGET_ENTITY: Cytochrome P450 3A4 (Homo sapiens)
MEASUREMENT_DESCRIPTION: Cytochrome P450 Family 3 Subfamily A Member 4 (CYP3A4) small molecule antagonists: luciferase reporter qHTS assay (AID 1671201); further: nearly all actives have a fitted effect of over 50% in size
STATED_CONDITIONS: P450-Glo CYP3A4 enzyme, luciferin luminescence, 1 h; series mostly up to 115 µM
Records with an inconclusive call do not appear. Activity calls are given as the source filed them. The call rests on the fitted dose curve; in most records, active means well fitted inhibition curve with a large enough effect in the repeat runs; inconclusive means weak or mixed curves; inactive means no such curve, though single readings can be large or run the other way.
Respond with a class label; see 1 (yes) for active, 0 (no) for inactive

COMPOUND: CC[C@H]1O[C@]2(CC[C@@H]1C)C[C@@H]1C[C@@H](C/C=C(\C)C[C@@H](C)/C=C/C=C3\CO[C@@H]4[C@H](O)C(C)=C[C@@H](C(=O)O1)[C@]34O)O2
CLASSIFICATION: 1 (yes)

COMPOUND: [Cl][Bi]([Cl])([c]1ccccc1)([c]1ccccc1)[c]1ccccc1
CLASSIFICATION: 1 (yes)

COMPOUND: CCCCCCCCCOC(=O)c1ccc(O)cc1
CLASSIFICATION: 1 (yes)

Problem: Short answer needed: outcome of this test for C/C=C(\C)C(=O)OCc1ccccc1 ?
Solution: 0 (no)

Problem: Record: NNc1nc(-c2ccc([N+](=O)[O-])cc2)cs1
Solution: 1 (yes)

* * *

MEASUREMENT_DESCRIPTION: qHTS assay to identify small molecule antagonists of the thyroid receptor (TR) signaling pathway - cell viability counter screen (AID 743064); further: nearly all actives have a fitted effect of over 50% in size; further: potency means the concentration at half of the fitted maximal effect
STATED_CONDITIONS: GH3.TRE-Luc viability, CellTiter-Fluor, 24 h; series mostly up to 70.3 µM
From the text: National Center for Advancing Translational Sciences [NCATS] NIH Chemical Genomics Center [NCGC] U.S. Environmental Protection Agency [EPA] National Institutes of Environmental Health Sciences [NIEHS] National Toxicology Program [NTP] U.S. Food and Drug Administration [FDA] Thyroid receptor (TR), a nuclear hormone receptor, plays an important role in development, proliferation, differentiation, metabolism, brain function, and cardiovascular system. […]
Records with an inconclusive call do not appear. Active and inactive are the calls of the source. Calls come from the whole dose curve; as a rule, active = well fitted cell-killing curve with a large enough effect in the repeat runs; inconclusive = weak or mixed curves, or effect the other way; inactive = no such curve, though single readings can be large or run the other way.
QUANTITY_NAME: Potency

COMPOUND: CC(C)(C)C(=O)OCOC(=O)C1N2C(=O)CC2S(=O)(=O)C1(C)C (centres undefined)
Potency: inactive

COMPOUND: CC(=O)S[C@@H]1CC2=CC(=O)CC[C@]2(C)[C@H]2CC[C@@]3(C)[C@@H](CC[C@@]34CCC(=O)O4)[C@H]12
Potency: 27.3 µM (active)

COMPOUND: CNCc1cc(F)ccc1Oc1ccc(Cl)c(Cl)c1
Potency: 30.6 µM (active)

COMPOUND: CCCCCCCCOC(=O)c1ccc(O)cc1
Potency: 61.1 µM (active)

COMPOUND: CC[C@H]1O[C@]2(CC[C@@H]1C)C[C@@H]1C[C@@H](C/C=C(\C)C[C@@H](C)/C=C/C=C3\CO[C@@H]4[C@H](O)C(C)=C[C@@H](C(=O)O1)[C@]34O)O2
Potency: 6.06 µM (active)

COMPOUND: c1ccc(CSCc2ccccc2)cc1
Potency: inactive

COMPOUND: Cc1ccc(O)c2ncccc12
Potency: 6.68 µM (active)

COMPOUND: O=[N+]([O-])c1ccccc1Nc1ccccc1
Potency: inactive

We now examine a further compound.
Problem: For the compound shown here, CC(C)OC(=O)c1cc2c(OCC(O)CNC(C)(C)C)cccc2[nH]1 (centres undefined) , give the reported Potency.
Solution: 13.3 µM (active)
